- Measured on: Prostaglandin E2 receptor EP2 subtype (Homo sapiens, UniProt P43116)
- Sequence (P43116 whole entry): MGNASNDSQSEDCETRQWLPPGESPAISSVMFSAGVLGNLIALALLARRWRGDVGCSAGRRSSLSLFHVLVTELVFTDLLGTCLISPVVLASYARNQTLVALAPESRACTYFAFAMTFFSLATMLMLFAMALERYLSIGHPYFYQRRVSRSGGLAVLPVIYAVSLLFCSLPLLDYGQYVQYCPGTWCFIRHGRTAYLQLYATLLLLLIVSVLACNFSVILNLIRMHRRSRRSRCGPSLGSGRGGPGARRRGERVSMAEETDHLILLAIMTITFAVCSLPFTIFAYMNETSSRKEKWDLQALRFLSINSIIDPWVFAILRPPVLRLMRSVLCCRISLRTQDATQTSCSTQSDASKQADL
- Protocol: Displacement of [3H]prostaglandin E2 from full-length recombinant human EP2 receptor expressed in HEK293 cell membranes measured after 120 mins by scintillation counting method
Readout: pIC50
Please keep in mind that pIC50 is minus log10 of the molar concentration; only the number is needed.

Exercise: Recorded pIC50 for Cc1c(-c2cccs2)nc2ccc(Br)cc2c1C(=O)NCCc1cccnc1 , please?
Solution: 5.36

----------
- Protocol: Terminal half life in Wistar rat at 1 mg/kg, iv administered as bolus dose by LC-MS/MS analysis
- Assay type: ADME, organism-based
- Reported conditions: in vivo, read-out: beta t1/2 (converted)
Readout: half-life (h)
Report as a plain number; the unit h is understood.

Exercise: Recorded half-life for Cc1c(N2CCCC2)nc2ccc(Br)cc2c1C(=O)NC[C@H](CCC(=O)O)c1ccccc1Cl , please?
Solution: 3.8

----------
- Protocol: Clearance in Beagle dog at 0.5 mg/kg, iv administered as 15 mins infusion or 1 mg/kg, po administered via gavage by LC-MS/MS analysis
- Assay type: ADME, organism-based, Canis lupus familiaris
- Reported conditions: in vivo
Readout: clearance (mL/min/kg)
Report as a plain number; the unit mL/min/kg is understood.

Exercise: Recorded clearance for Cc1c(N2CCCC2)nc2ccc(Br)cc2c1C(=O)NC[C@H](CCC(=O)O)c1ccccc1Cl [BAY-6672] , please?
Solution: 13.3

----------
- Protocol: Oral bioavailability in Wistar rat at 3 mg/kg administered via gavage by LC-MS/MS analysis
- Format: ADME, organism-based
- Reported conditions: in vivo
Readout: bioavailability (%)
Report as a plain number; the unit % is understood.

Exercise: Recorded bioavailability for Cc1c(N2CCCC2)nc2ccc(Br)cc2c1C(=O)NC[C@H](CCC(=O)O)c1ccccc1Cl , please?
Solution: 91

----------
- Protocol: Relative oral bioavailability in Wistar rat at 1 to 3 mg/kg administered via gavage in 99.5% water, 0.5% Tylose and TRIS salt formulation by LC-MS/MS analysis
- Format: ADME, organism-based
- Reported conditions: in vivo, dose 1-3 mg/kg
Readout: bioavailability (%)
Report as a plain number; the unit % is understood.

{"Structure notation": "Cc1c(-c2ccccc2)nc2ccc(Br)cc2c1C(=O)NC12CCC(C(=O)O)(CC1)CC2.NC(CO)(CO)CO", "Readout unit": "%", "Experimental result": 79}

Exercise: Recorded bioavailability for Cc1c(-c2ccccc2)nc2ccc(Br)cc2c1C(=O)Nc1ccc(C(=O)O)cc1F.NC(CO)(CO)CO , please?
Solution: 37

----------
Cytochrome P450 3A4 (Homo sapiens) data, read-out IC50
Sequence (P08684 whole entry): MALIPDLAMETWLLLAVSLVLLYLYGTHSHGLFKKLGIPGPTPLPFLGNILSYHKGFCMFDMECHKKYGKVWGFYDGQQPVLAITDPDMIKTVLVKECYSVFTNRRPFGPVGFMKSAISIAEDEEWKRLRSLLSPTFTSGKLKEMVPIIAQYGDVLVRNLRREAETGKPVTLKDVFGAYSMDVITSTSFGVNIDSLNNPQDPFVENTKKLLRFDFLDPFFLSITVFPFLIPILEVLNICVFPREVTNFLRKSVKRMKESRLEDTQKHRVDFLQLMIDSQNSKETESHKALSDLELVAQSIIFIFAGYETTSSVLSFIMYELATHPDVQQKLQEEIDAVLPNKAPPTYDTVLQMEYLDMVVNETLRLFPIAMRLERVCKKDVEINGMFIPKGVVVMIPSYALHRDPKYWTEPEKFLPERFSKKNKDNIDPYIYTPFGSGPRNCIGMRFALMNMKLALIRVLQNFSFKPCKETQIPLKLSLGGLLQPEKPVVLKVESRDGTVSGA

A selection of reference data follows.
{"Molecule": "Cc1c(-c2ccccc2)nc2ccc(Br)cc2c1C(=O)NCC(CCC(=O)O)c1c(F)ccc(F)c1Cl (single isomer, unassigned; (+))", "Experimental result": "> 20 µM"}
{"Molecule": "Cc1c(C(=O)Nc2ccc(C(=O)O)cc2F)c2cc(Br)ccc2[n+]([O-])c1-c1ccccc1", "Experimental result": "> 20 µM"}
{"Molecule": "Cc1c(-c2ccccc2)nc2ccc(Br)cc2c1C(=O)Nc1ccc(C(=O)O)cc1", "Experimental result": "> 20 µM"}
{"Molecule": "Cc1c(-c2ccccc2)nc2ccc(Br)cc2c1C(=O)NCC(CCCC(=O)O)c1ccccc1Cl (stereo in doubt; 44)", "Experimental result": "13 µM"}

Exercise: Recorded IC50 for CCC1CCCN(c2nc3ccc(Br)cc3c(C(=O)NCC(CCC(=O)O)c3ccccc3Cl)c2C)C1 (single isomer, unassigned; 55) , please?
Solution: 5 µM

Exercise: Recorded IC50 for Cc1c(-c2ccccc2)nc2ccc(Br)cc2c1C(=O)NCC(CCC(=O)O)c1ccccc1Cl (single isomer, unassigned; (+)) , please?
Solution: > 20 µM

Exercise: Recorded IC50 for Cc1c(-c2ccccc2)nc2ccc(Br)cc2c1COc1ccc(C(=O)O)cc1F , please?
Solution: > 20 µM

Exercise: Recorded IC50 for Cc1c(-c2ccccc2)nc2ccc(I)cc2c1C(=O)Nc1ccc(C(=O)O)cc1F , please?
Solution: > 20 µM

Exercise: Recorded IC50 for CCC1CCCN(c2nc3ccc(Br)cc3c(C(=O)NCC(CCC(=O)O)c3ccccc3Cl)c2C)C1 (single isomer, unassigned; 52) , please?
Solution: 5 µM
